Assign %Inh to each entry below.
# Tested on: KIT-autoinhibited;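 also: KINOMEscan kinase panel screen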
# condition.set: concentration: 1 μM, replicates: in singlicate; n = 1
In your response, the unit should come after the numeric value.

Ask: For the compound shown here, Cc1ccc(NC(=O)c2cccc(N3CCCCC3)c2)cc1-c1ccc(C(=O)NCC2CC2)cc1 , give the reported %Inh.
Reply: 6%

Ask: Also COc1ccc(NC(=O)c2ccoc2)cc1-c1ccc(C(=O)NCC2CC2)cc1 , if possible.
Reply: 17%

Ask: Also Cl.Cl.NC(CNC(=O)c1cc(Br)c(-c2ccnc3[nH]ccc23)s1)c1ccccc1 (centres unmarked) , if possible.
Reply: 0%

Ask: Also O=C(O)C(F)(F)F.O=c1[nH]ccc2nc(N[C@@H]3CCNC3)nc(Nc3ccc4c(c3)S(=O)(=O)CC4)c12 , if possible.
Reply: 0%

Ask: Also Cc1cccc(Nc2nc(NCCN)ncc2C(N)=O)c1 , if possible.
Reply: 9%

Ask: Also CCn1c(-c2nonc2N)nc2c(-c3ccccc3)ncc(OCCCN)c21.O=C(O)C(F)(F)F.O=C(O)C(F)(F)F , if possible.
Reply: 0%

Ask: Also CN(C)CCOc1ccc(-c2cc(-c3ccc(Cl)c(O)c3)c(-c3ccncc3)[nH]2)cc1.Cl.Cl , if possible.
Reply: 2%

Ask: Also Cc1ccccc1CC(=O)N1CCc2cc(-c3cn(C)c4ncnc(N)c34)ccc21 , if possible.
Reply: 1%
